- tested_on: recombinant human prostanoid EP2 receptor (Homo sapiens (Human), UniProt P43116)
- Sequence (P43116 whole entry): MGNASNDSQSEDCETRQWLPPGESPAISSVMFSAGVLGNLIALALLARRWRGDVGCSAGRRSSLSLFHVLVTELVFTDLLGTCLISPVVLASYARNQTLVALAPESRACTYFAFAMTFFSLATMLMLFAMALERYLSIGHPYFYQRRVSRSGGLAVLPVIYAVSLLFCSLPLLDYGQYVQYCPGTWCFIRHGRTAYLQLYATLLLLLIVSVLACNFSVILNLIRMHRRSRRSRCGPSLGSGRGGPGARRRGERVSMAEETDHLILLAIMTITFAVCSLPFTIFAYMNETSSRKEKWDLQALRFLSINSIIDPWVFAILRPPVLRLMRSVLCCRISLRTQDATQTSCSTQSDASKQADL
- assay_comment: Human prostanoid EP2 receptor cellular functional assay (cAMP, HTRF)
- Format: cell-based
- test_settings: percent of control specific agonist response (10 μM PGE2)
measured_attribute: In vitro functional assay EP2 (h) % response
A complete answer gives the number and then names the unit.

In: Which measured In vitro functional assay EP2 (h) % response value corresponds to O=C(O)COc1cccc(NCc2cc(-c3cccc(F)c3)ccc2F)c1 [I(a)] ?
Out: 74%

In: Moving on to Cc1cc(OCC(=O)O)c(C)c(NCc2cc(-c3cccc(F)c3)ccc2F)c1F [I(ac)]
Out: 117%

In: What would you report for Cc1c(OCC(=O)O)ccc(F)c1NCc1cc(O)cc(-c2cccc(F)c2)c1 [I(ah)] ?
Out: 74%

In: And for COc1cc(CNc2c(C)ccc(OCC(=O)O)c2C)cc(-c2cccc(F)c2)c1 [I(ap)] ?
Out: 89%

In: Now consider Cc1cc(CNc2c(F)ccc(OCC(=O)O)c2C)cc(-c2cccc(F)c2)c1 [I(ae)] and answer again.
Out: 83%

In: Next compound up: Cc1cc(-c2cc(F)cc(F)c2)cc(CNc2c(F)ccc(OCC(=O)O)c2F)c1C [I(ar)]
Out: 130%

In: Do the same for Cc1cc(-c2cccc(F)c2)cc(CNc2c(F)ccc(OCC(=O)O)c2F)c1O [I(u)] please
Out: 78%

In: Let us now turn to COc1c(C)cc(-c2cccc(F)c2)cc1CNc1c(F)ccc(OCC(=O)O)c1F [I(t)]
Out: 73%

In: Moving on to the next compound: CC(C)OC(=O)COc1ccc(F)c(NCc2cc(-c3cccc(F)c3)ccc2F)c1F [II(d)]
Out: 44%

In: Item: Cc1ccc(-c2cccc(F)c2)cc1CNc1c(F)ccc(OCC(=O)O)c1F [I(c)]
Out: 66%

In: Same for Cc1cc(CNc2c(F)ccc(OCC(=O)O)c2C)c(F)c(-c2cccc(F)c2)c1 [I(ai)]
Out: 80%

In: Same question for NC(=O)c1cc(CNc2c(F)ccc(OCC(=O)O)c2F)cc(-c2cccc(F)c2)c1 [I(z)] please.
Out: 53%

In: Do the same for Cc1cc(-c2cccc(F)c2)cc(CNc2c(C)ccc(OCC(=O)O)c2C)c1C [I(ak)] please
Out: 113%

In: What would you report for Cc1c(F)cc(-c2cccc(F)c2)cc1CNc1c(F)ccc(OCC(=O)O)c1C [I(av)] ?
Out: 97%

In: Try O=C(O)COc1cccc(CN(Cc2ccc(-n3cccn3)cc2)S(=O)(=O)c2cccnc2)c1 [CP-544326, reference compound] next.
Out: 72%

In: Note, next up: O=C(O)COc1ccc(F)c(NCc2cccc(-c3cccc(F)c3)c2)c1F [I(e)]
Out: 65%
